- system: T1, Programmed cell death protein 1 (PD-1), human (human, UniProt Q15116 25-167, limits assumed)
- T1 construct: also called full-length PD-1
- T1 sequence (Q15116 25-167 limits assumed): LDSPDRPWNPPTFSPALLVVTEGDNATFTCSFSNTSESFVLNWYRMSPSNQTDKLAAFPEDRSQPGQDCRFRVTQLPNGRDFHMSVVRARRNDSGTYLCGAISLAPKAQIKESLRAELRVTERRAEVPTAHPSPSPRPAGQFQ
- assay_remarks: SPR avidity, column 'Avidity (nM)' of the drawn table
Parameter: pKd. Scope: all listed entries.
Please keep in mind that pKd is minus log10 of the molar concentration; only the number is needed.

Observe how each entry below is paired with its result.
INSERT INTO measurements (binder, measured_value) VALUES
  ('1-C09-3 (antibody, V domains shown, From the in vitro scFv library of immunised mice) VH: QVQLQQPGAELVRPGTSVKLSCKASGYTFTSYWMHWVKERPGQGLEWIGVIDPSDSYTNYNQKFKDKATLTVDTSSSTAYMQLSSLTSEDSAVYYCARSPFDYWGQGTTLTVSS VL: DIQMTQSQKFMSTSVGDRVSVTCKASQNVGTNVAWYQQKPGQSPKALIYSASYRYSGVPDRFIGSGSGTDFTLTIRNVQSEDLAEYFCQQHNSYPFTFGGGTKLEIK', 9.11),
  ('1-F12-1 (antibody, V domains shown, From the in vitro scFv library of immunised mice) VH: EVQLQQPGAELVRPGTSVKLSCKASGYTFTSYWMHWVKQRPGQGLEWIGVIDPSDSYTQYNQKFKGKATLTVDTSSSTAYMQLSSLTSEDSAVYYCARSPFDYWGQGTTVTVSS VL: DIVMTQSHKFMSTSVGDRVSITCKASQDVSTAVAWYQQKPGQSPKALIYSASYRYSGVPDRFTGSGSGTDFTLTISNVQAEDLAVYYCHQHNTYPFTFGGGTKLEIK', 9.01);

The record that follows has no pKd shown yet.
Exercise: GET /values?readout=pKd&item= 2-D11-1 (antibody, V domains shown, From the in vitro scFv library of immunised mice) VH: EVQLQQPGAELVRPGTSVKLACKASGYTFNTYWMHWVNQRPGQGLEWIGVIDPSDSYTQYNQKFKGKATLTVDTSSSTAYMQLSSLTSEDSAVYYCARSPFDYWGQGTTLTVSS VL: DVQMTQSQKFMSTSVGDRVSVTCKASQNVGTNVAWYQQKPGQSPKALIYSASYRYSGVPDRFIGSGSGTDFTLTISNVQSEDLAEYFCQQHNSYPFTFGGGTKLEIK
Key: 9.02

FYI, the data here is from patent US20240092909A1.
